Collected pIC50 values appear next to each entry.
Test system: HXB2-strain of HIV
Experiment: Antiviral assay: protection of HIV-infected MT4 cells from cell death (MTT)
Format: cell-based
Details: Human immunodeficiency virus 1, 120 h; MT4 cells infected with HXB2-strain of HIV, 5 days, MTT viability
Conceptually, pIC50 converts a concentration in mol/L into minus its log10.

The following molecules have reported results that may help.
COc1cc(Cl)cc(Sc2c(Cc3ccnc(OC)c3)c(C)nn2C(C)C)c1    7.50
Cc1nn(-c2ccccc2)c(Sc2cc(Cl)cc(Cl)c2)c1Cc1ccccc1    6.39
Cc1nn(C(C)C)c(Sc2cc(Cl)cc(Cl)c2)c1COc1cncc(Cl)c1    6.69
Cc1nn(C(C)C)c(Sc2cc(Cl)cc(Cl)c2)c1Cc1ccncc1F    7.95
CCn1nc(C)c(Cc2cncc(Br)c2)c1Sc1cc(Cl)cc(Cl)c1    6.91

[in] Tell me the measured pIC50 of `Cc1nn(C(C)C)c(Sc2cc(Cl)cc(Cl)c2)c1Cc1ccncn1` , please.
[out] 7.87

====

Collected pIC50 values appear next to each entry.
Test system: HXB2-strain of HIV
Assay: Antiviral assay: protection of HIV-infected MT4 cells from cell death (MTT)
Assay type: cell-based
Conditions: Human immunodeficiency virus 1, 120 h; MT4 cells infected with HXB2-strain of HIV, 5 days, MTT viability
Conceptually, pIC50 converts a concentration in mol/L into minus its log10.

Cc1nn(-c2ccccc2)c(Sc2cc(Cl)cc(Cl)c2)c1Cc1ccncc1    7.44
Cc1cccc(Sc2c(Cc3ccncc3F)c(C)nn2C(C)C)c1    7.72
Cc1nn(C(C)C)c(Sc2cccc(Br)c2)c1Cc1ccncc1F    7.72
Cc1cc(Cc2c(C)nn(C(C)C)c2Sc2cc(Cl)cc(Cl)c2)cc(Cl)n1    7.55
Cc1nn(-c2ccccc2)c(Sc2cc(Cl)cc(Cl)c2)c1CCc1ccccc1    6.23

[in] Tell me the measured pIC50 of `CCn1nc(C)c(Cc2ccncc2)c1Sc1cc(Cl)cc(Cl)c1` , please.
[out] 8.05

Hello, the source for this data is patent US6699887B2, in case you need it.
